Tested on: Plasmodium berghei
Test: Screen against P. berghei liver stage (PbLuc), transformed with Luciferase, at 2uM
Assay type: functional, HepG2
Conditions: tested at 2 uM
In all, about 68,000 compounds went through this assay and about 2,700 (4%) showed an effect of 50% or more. The sample holds strong results, similar compounds and a random draw of the others, so the mix is not that of the screen.
// returns condition not met unless INHIBITION is strictly below 40%, in which case condition met

Qu. Item c1ccc(COc2ccccc2CNC2CCc3ncnn3C2)cc1 (stereo not drawn) : INHIBITION beneath 40%, strictly?
Ans. condition met

Qu. For c1cnc(N2C[C@H]3CCN(CC4CC4)C[C@H]3C2)cn1 , is the recorded INHIBITION below the cut-off of 40%?
Ans. condition met

Qu. is_below(INHIBITION, 40%) for CCn1cc(CN2C[C@@H]3CC[C@H]2CN(C(=O)c2ccncc2)C3)cn1 ?
Ans. condition met

Qu. Lab log: compare recorded INHIBITION with 40%; is it strictly lower for Cn1c(N2CCOCC2)nc2cc(C(=O)N3CCC(O)(CO)C3)ccc21 (stereo not drawn) ?
Ans. condition met

Qu. Does the reported INHIBITION of the following compound sit strictly below 40%? N#Cc1ccc(N2CCCN(CCCn3cncn3)CC2)cc1
Ans. condition met

Qu. API: query returns whether the compound falls strictly under 40% in INHIBITION. Query: Cn1cc(N2CCC3(CCN(C(=O)[C@H]4CCCO4)C3)C2=O)cn1 (stereo partly drawn)
Ans. condition met

Qu. Would you kindly verify if INHIBITION of c1ccc(CCNC2CCc3ncnn3C2)nc1 (stereo not drawn) is strictly less than 40%?
Ans. condition met

Qu. Just wondering, is INHIBITION of CSc1ccc(-c2nc(CN3CCC(NC(C)=O)CC3)c(C)o2)cc1 below 40%?
Ans. condition met

Qu. Please state whether INHIBITION is below 40% for CCc1nc(CNc2nc3c(s2)c(C)nn3C)cs1
Ans. condition not met

Qu. Just wondering, is INHIBITION of C[C@H]1C[C@H]2CN(C(=O)CCc3ccccc3)CC[C@H]2O1 below 40%?
Ans. condition not met

Qu. A record lists Cc1cnc(N2CCC3(CC(=O)N(Cc4csc(C)n4)C3)C2)nc1 (stereo not drawn) . Is its INHIBITION below 40%?
Ans. condition met

Qu. Threshold test, INHIBITION < 40%: CC1c2ncc(COCC3CC3)n2CCN1C(=O)c1ccnn1C (stereo not drawn)
Ans. condition met

Qu. # check: INHIBITION < 40% for CCN(Cc1noc(C2CC2)n1)C(=O)c1onc2ccccc12
Ans. condition not met

Qu. Consider CN(CCO)CC1COCCN1C(=O)C1CCCCC1 (stereo not drawn) . Does its INHIBITION lie strictly below 40%?
Ans. condition met

Qu. Hello, is INHIBITION of the following compound strictly smaller than 40%? c1ccc(Cn2cccn2)c(CN2CCC3(CCCNC3)C2)c1 (stereo not drawn)
Ans. condition met

Qu. Input CC(C)CC(NC(=O)c1ccc[nH]1)C(=O)N1CCC(CO)CC1 (stereo not drawn) ; condition: INHIBITION strictly below 40%. Does it hold?
Ans. condition met

Qu. Dear colleague, could you confirm whether INHIBITION of CNC(=O)COC(=O)c1cccc(-n2ccc(C(F)(F)F)n2)c1 falls below 40%? Thanks.
Ans. condition met

Qu. Strictly below 40% in INHIBITION? CSc1ccc(-c2nc(CN3CCC(NC(C)=O)C3)c(C)o2)cc1 (stereo not drawn)
Ans. condition not met

Qu. For this compound, is INHIBITION lower than 40%? c1ccc(-c2noc(C3CCN(CCCn4cncn4)CC3)n2)cc1
Ans. condition not met

Qu. Hi there! Is INHIBITION for N#Cc1ccc(CN2CCCN(C(=O)CCn3cncn3)CC2)cc1 below 40%, do you know?
Ans. condition met

Qu. Report whether reported INHIBITION is lower than 40% (strictly) for COCCC(=O)N1CC[C@@H]2O[C@@H](C)C[C@H]2C1
Ans. condition met

Qu. Does Cc1ccc2c(c1)OC(C)CN2C(=O)c1c[nH]c(C)cc1=O (stereo not drawn) have INHIBITION strictly under 40%?
Ans. condition met

Qu. # TODO verify INHIBITION < 40% strictly for this compound: c1ccc(SCCN2CCN(CCn3cncn3)CC2)cc1
Ans. condition met

Qu. Confirm or reject: INHIBITION of Cc1ccc(Oc2ncccc2C(=O)O)c(C)c1 lies strictly below 40%
Ans. condition not met

Qu. Is 40% strictly greater than the compound's reported INHIBITION? compound: CC(=O)N1CC2(CCN(C(=O)c3cccc4[nH]ccc34)CC2)C1
Ans. condition met

Qu. Item Cn1ccc2ccnc(CC3CN(C(=O)c4cscn4)C3)c21 : INHIBITION beneath 40%, strictly?
Ans. condition not met

Qu. Strictly below 40%: is that where INHIBITION of c1ccc(C(c2ccccc2)N2CCN(CCn3cncn3)CC2)cc1 sits?
Ans. condition met

Qu. Below 40% on INHIBITION? Entry CNC(=O)CCOC(=O)c1cccc(-n2ccc(C(F)(F)F)n2)c1
Ans. condition met

Qu. Determine if O=c1[nH]nc2nc(N3CCOCC3)ccn12 shows INHIBITION strictly lower than 40%.
Ans. condition met

Qu. Could you please tell me whether INHIBITION recorded for CCCc1nc(CN(CC)C(=O)c2onc3ccccc23)no1 is less than 40%?
Ans. condition met

Qu. Given the entry CNC(=O)c1ccnc(CC2COc3c(cccc3OC)C2)c1 (stereo not drawn) , would its reported INHIBITION be below 40%?
Ans. condition met

Qu. INHIBITION strictly < 40% for this compound? COCc1nnc(C(=O)N2CC(N3CCCCC3)C2)o1
Ans. condition met

Qu. Quick check: does O=C(CCn1cncn1)N1C[C@@H]2CC[C@H]1CN(Cc1cccnc1)C2 have INHIBITION under 40%?
Ans. condition not met

Qu. Is INHIBITION strictly under 40% for the entry Cc1nc(CN2C[C@@H](CN3CCOCC3)[C@@H](CO)C2)c2ccccn12 ?
Ans. condition met

Qu. Given the entry COCc1nnc(C(=O)N2CCC(N3CCCCC3)CC2)o1 , would its reported INHIBITION be below 40%?
Ans. condition not met

Qu. I wonder whether c1ccc(CCCN2CCN(CCn3cncn3)CC2)cc1 has INHIBITION below 40%. Can you tell?
Ans. condition not met

Qu. Please determine if c1cncc(COCc2cncc3c2CCN(Cc2ccoc2)C3)c1 is below 40% in terms of INHIBITION.
Ans. condition met

Qu. # check: INHIBITION < 40% for c1cnn(Cc2ccc(CN3CCC4(CCNCC4)C3)cc2)c1
Ans. condition not met

Qu. Here's an entry: CC(C)(C)CC(NC(=O)N1CCC(C(N)=O)CC1)C(F)(F)F (stereo not drawn) . Is its INHIBITION below 40%?
Ans. condition met

Qu. Lab note: INHIBITION threshold 40%. Does this compound come in strictly under it? O=C(CCCn1cncn1)N1CCCC1c1nc(-c2ccccc2)no1 (stereo not drawn)
Ans. condition not met

Qu. For this compound, is INHIBITION lower than 40%? Cc1ccc(Oc2ncccc2C(=O)N(C)CCCN(C)C)c(C)c1
Ans. condition met

Qu. Decide: INHIBITION of CN(CCO)CC1COCCN1C(=O)CCC1CCCC1 (stereo not drawn) strictly below 40%?
Ans. condition not met

Qu. Input CCn1ccnc1CN1CCN(C(C)C(=O)NCc2ccco2)CC1 (stereo not drawn) ; condition: INHIBITION strictly below 40%. Does it hold?
Ans. condition met

Qu. Identify whether the compound N#Cc1ccc(CN2CCCN(CCCn3cncn3)CC2)cc1 records INHIBITION below 40%.
Ans. condition not met

Qu. Just wondering, is INHIBITION of CC(=O)N1CC(Cc2nccc3ccn(C)c23)C1 below 40%?
Ans. condition met

Qu. I wonder whether CNC(=O)CCOC(=O)c1cccc(-n2cccn2)c1 has INHIBITION below 40%. Can you tell?
Ans. condition not met

Qu. # strict comparison: is reported INHIBITION < 40%? input = CCn1cc(-c2cc(-c3ccn(C)c3)nc(N)c2C#N)cc1C#N
Ans. condition met

Qu. Quick check: INHIBITION of c1ccc(OCC2CC2)c(CNC2CCc3ncnn3C2)c1 (stereo not drawn) under 40%?
Ans. condition not met
